test system: NEK9; conditions: concentration: 1 μM, replicates: in singlicate; n = 1;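 further: KINOMEscan kinase panel screen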
%Inh values, listed per item

compound: O=c1cc(N2CCOCC2)nc2n(Cc3ccccc3F)ccn12 [GSK2297428]
assay_target: NEK9
unit_string: %
%Inh: 0
--
compound: Cc1nccc(-c2c(-c3ccc(F)cc3)ncn2CCCN2CCOCC2)n1.Cl [SB-282975]
assay_target: NEK9
unit_string: %
%Inh: 13
--
compound: CNc1nc(-c2ccc3c(N)n[nH]c3c2)cc(N2C[C@@H](C(=O)NC3CCCCC3)OC[C@H]2C)n1 [GSK2375584]
assay_target: NEK9
unit_string: %
%Inh: 4
--
compound: COC(=O)C(Cc1ccccc1)NC(=O)NC1CCN(c2ccnc(Nc3ccc(F)cc3)n2)C1 (stereo not shown) [GSK1379714]
assay_target: NEK9
unit_string: %
%Inh: 17

* * *

%Inh values, listed per item
test system: PIK3C2G; settings: concentration: 1 μM, replicates: in singlicate; n = 1

item_smiles: Cc1ccc(NC(=O)Nc2ccccc2F)cc1-c1ccc(C(=O)Nc2ccncc2)cc1
%Inh [%]: 0

item_smiles: CC(=O)c1c(C)c2cnc(Nc3ccc(N4CCNCC4)cn3)nc2n(C2CCCC2)c1=O
%Inh [%]: 0

item_smiles: CCn1c(-c2c(N)noc2C)nc2cnccc21
%Inh [%]: 0

item_smiles: Cc1c(Cn2c3ccccc3n3c(=O)cc(N4CCOCC4)nc23)cccc1C(F)(F)F
%Inh [%]: 3

item_smiles: CCCCc1nn2ncccc2c1-c1ccnc(NC2CC2)n1
%Inh [%]: 0

item_smiles: Fc1ccc(-c2nc[nH]c2-c2ccncc2)cc1
%Inh [%]: 0

item_smiles: O=C1NC(=O)C(c2ccc(Cl)cc2)=C1Nc1cccc(Cl)c1
%Inh [%]: 0

item_smiles: CNc1nc(-c2ccc3c(N)n[nH]c3c2)cc(N2C[C@@H](C(=O)NC3CCCCC3)OC[C@H]2C)n1
%Inh [%]: 0

item_smiles: Cc1nccc(-c2c(-c3ccc(F)cc3)ncn2CCCN2CCOCC2)n1.Cl
%Inh [%]: 22

* * *

%Inh values, listed per item
tested on: CIT; settings: concentration: 1 μM, replicates: in singlicate; n = 1
property_measured: %Inh (%)

compound: c1ccc(-c2ccnc3[nH]ccc23)cc1
property_measured: %Inh
measurement: 3
--
compound: Cc1cccc2c(-c3ccncn3)c(-c3ccc(F)cc3)nn12
property_measured: %Inh
measurement: 82
--
compound: Cn1cncc1C(=O)NC1CCN(c2ccnc(Nc3ccc(F)cc3)n2)C1 (centres unmarked)
property_measured: %Inh
measurement: 0
--
compound: Cc1nccc(-c2c(-c3ccc(F)cc3)ncn2CCCN2CCOCC2)n1.Cl
property_measured: %Inh
measurement: 21
--
compound: CC(=O)c1cccc(NC(=O)NC2CCN(c3ccnc(Nc4ccc(F)cc4)n3)C2)c1 (centres unmarked)
property_measured: %Inh
measurement: 29
--
compound: CNc1cc(-c2ccc3c(N)n[nH]c3c2)nc(N)n1
property_measured: %Inh
measurement: 9
--
compound: COc1ccc(CSc2nnc(-c3ccc4nccn4c3)o2)cc1C(F)(F)F
property_measured: %Inh
measurement: 14
--
compound: NS(=O)(=O)c1cccc(N/C=C2\C(=O)Nc3ccc(S(=O)(=O)Cc4c(Cl)cccc4Cl)cc32)c1
property_measured: %Inh
measurement: 22

These entries and their values trace back to paper PMC5540273.
